Listed below: pKd values for each entry.
# System tested: T1, ARHGEF11, O15085
# T1 sequence (O15085 42-136, limits assumed, looked up): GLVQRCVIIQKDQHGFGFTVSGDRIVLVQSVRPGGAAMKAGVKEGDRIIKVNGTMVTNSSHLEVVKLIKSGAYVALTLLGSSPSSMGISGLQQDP
# Experimental protocol: holdup assay
# Set-up: key: below the threshold = too weak to quantify, mostly under pKd 3.1 to 4
# Condition parameters: plain residues with an end cap or a label only (N-terminal biotin on a linker: ado-ado)
Just the number, please, no unit after it.

Study these solved cases before continuing.
[
  {
    "Binder": "IPLDGETEEL [MYOZ1, Q9NP98]",
    "pKd": 3.82
  },
  {
    "Binder": "VDSTVKVWTC [TRAF7, Q6Q0C0]",
    "pKd": 4.21
  },
  {
    "Binder": "QGLAERISVL [PRKD2, Q9BZL6]",
    "pKd": 4.77
  },
  {
    "Binder": "QMNQTLPVQV [EPHB3, P54753]",
    "pKd": 4.36
  }
]

In: Report pKd for SAAKVLTSMC [GHRHR, Q02643]
Out: 4.21
